Test system: BT-20
protocol-description: relative cell number vs DMSO control (72 h) (% of DMSO); higher = less growth inhibition (more cells)
assay-context: sgRNA knockout: sgNT, 1000 nM
Reported relative cell number by item:
Keep it simple and answer with nothing but the number.

Request the reported relative cell number associated with O=C(Cc1ccc(-c2ccc(OCCN3CCOCC3)cc2)cn1)NCc1ccccc1 [KX2391]
33.3

Request the reported relative cell number associated with C[C@]12CC[C@@H]3c4ccc(O)cc4C[C@@H](CCCCCCCCC[S+]([O-])CCCC(F)(F)C(F)(F)F)[C@H]3[C@@H]1CC[C@@H]2O (stereo not given in full) [Fulvestrant]
86.6

Request the reported relative cell number associated with C[C@H]1CCC/C=C/[C@@H]2C[C@H](O)C[C@H]2[C@H](O)/C=C/C(=O)O1 [BrefeldinA]
31.1

Request the reported relative cell number associated with O=C(O)C(Cc1c[nH]c2ccccc12)N1C(=O)c2ccccc2C1=O (stereo not given) [RG108]
102

New cases:
Request the reported relative cell number associated with CCOc1cc2ncc(C#N)c(Nc3ccc(OCc4ccccn4)c(Cl)c3)c2cc1NC(=O)/C=C/CN(C)C [Neratinib]
79.7

Request the reported relative cell number associated with CCOc1ccccc1-n1c(C(C)N2CCN(C(=O)COc3ccc(Cl)cc3)CC2)nc2ccccc2c1=O (stereo not given) [Erastin]
99.8

Request the reported relative cell number associated with Cc1ccc(Nc2nccc(N(C)c3ccc4c(C)n(C)nc4c3)n2)cc1S(N)(=O)=O [Pazopanib]
110

Request the reported relative cell number associated with Nc1ccn([C@@H]2O[C@H](CO)[C@@H](O)C2(F)F)c(=O)n1 [Gemcitabine]
28.3

Request the reported relative cell number associated with Cc1ccc(C(=O)Cn2c3c(sc2=N)CCCC3)cc1 [PifithrinAlpha]
103

Request the reported relative cell number associated with c1cc(Nc2cc(C3CC3)[nH]n2)nc(Nc2ccc3nc[nH]c3c2)n1 [APY29]
88.3

Request the reported relative cell number associated with CCNC(=O)c1noc(-c2cc(C(C)C)c(O)cc2O)c1-c1ccc(CN2CCOCC2)cc1 [NVPAUY922]
37.9

Request the reported relative cell number associated with CC(C)C[C@H](NC(=O)[C@H](Cc1ccccc1)NC(=O)c1cnccn1)B(O)O [Bortezomib]
16.7

Request the reported relative cell number associated with CC(C)(C)OC(=O)CN(Cc1ccc(Cl)cc1)Cc1ccc([N+](=O)[O-])s1 [GSK4112]
94

Request the reported relative cell number associated with CC/C(=C(\c1ccc(O)cc1)c1ccc(OCCN(C)C)cc1)c1ccccc1 [4-Hydroxytamoxifen]
106

Request the reported relative cell number associated with O=C(O)CCCc1ccc(N(CCCl)CCCl)cc1 [Chlorambucil]
93.2
